target: CDK9/Cyclin T1 (Homo sapiens (Human)); experiment: CDK9 enzyme assay (LANCE ULight TR-FRET kinase assay); details: 1000 μM ATP, 100 nM ULight MBP, kinase reaction 1 hour
Sequence (P50750 whole entry): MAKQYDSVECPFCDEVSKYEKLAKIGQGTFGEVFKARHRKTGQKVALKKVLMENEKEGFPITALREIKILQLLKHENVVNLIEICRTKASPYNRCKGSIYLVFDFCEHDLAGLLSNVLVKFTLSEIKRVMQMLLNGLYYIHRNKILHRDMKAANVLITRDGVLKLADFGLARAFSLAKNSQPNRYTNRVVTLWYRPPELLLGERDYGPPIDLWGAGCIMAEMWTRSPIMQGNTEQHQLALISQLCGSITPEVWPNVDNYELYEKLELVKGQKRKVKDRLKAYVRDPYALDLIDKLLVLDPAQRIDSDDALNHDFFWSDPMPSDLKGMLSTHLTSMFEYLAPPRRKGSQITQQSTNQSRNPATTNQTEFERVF
Sequence (O60563 whole entry partner): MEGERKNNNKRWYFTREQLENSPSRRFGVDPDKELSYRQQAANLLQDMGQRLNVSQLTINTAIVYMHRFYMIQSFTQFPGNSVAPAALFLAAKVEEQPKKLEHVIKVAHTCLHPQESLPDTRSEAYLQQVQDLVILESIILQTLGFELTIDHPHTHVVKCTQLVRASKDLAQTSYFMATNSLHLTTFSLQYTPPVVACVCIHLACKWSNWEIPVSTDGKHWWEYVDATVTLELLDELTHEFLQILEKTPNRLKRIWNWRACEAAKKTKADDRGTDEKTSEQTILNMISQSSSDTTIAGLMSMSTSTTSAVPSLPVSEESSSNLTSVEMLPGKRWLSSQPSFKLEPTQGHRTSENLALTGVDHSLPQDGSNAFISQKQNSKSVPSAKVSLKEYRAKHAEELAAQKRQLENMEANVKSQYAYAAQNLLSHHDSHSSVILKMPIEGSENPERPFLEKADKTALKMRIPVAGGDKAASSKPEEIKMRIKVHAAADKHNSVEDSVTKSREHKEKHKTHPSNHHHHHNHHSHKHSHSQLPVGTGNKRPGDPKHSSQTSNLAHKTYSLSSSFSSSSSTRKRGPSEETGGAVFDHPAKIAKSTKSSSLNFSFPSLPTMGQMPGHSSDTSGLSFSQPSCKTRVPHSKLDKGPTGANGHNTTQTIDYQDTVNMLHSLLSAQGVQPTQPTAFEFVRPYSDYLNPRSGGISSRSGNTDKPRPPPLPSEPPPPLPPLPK
pIC50: −log10 of the molar value.
RESULT_TYPE: pIC50

COMPOUND: CN(C)C(=O)CN1CC2C=C(c3[nH]c4nccc5c4c3CN(C)c3ccc(F)cc3-5)CC2C1 (stereo not shown) [Example 77]
TEST_RESULT: 7.34

COMPOUND: CN1Cc2c(C3=CCN(CC(=O)N4CCC[C@@H]4CO)CC3)[nH]c3nccc(c23)-c2cc(F)ccc21 [Example 64]
TEST_RESULT: 7.21

COMPOUND: CN1Cc2c(C3=C[C@H]4CC[C@@H](C3)N4CC(=O)N3CCC[C@H]3CO)[nH]c3nccc(c23)-c2cc(F)ccc21 [Example 79]
TEST_RESULT: 7.14

COMPOUND: CN1Cc2c(C3=CC4CCCC(C3)N4CC(=O)N(C)C3CC(O)C3)[nH]c3nccc(c23)-c2cc(F)ccc21 (stereo not shown) [Example 106]
TEST_RESULT: 7.18

COMPOUND: CN1Cc2c(C3=C[C@@H]4COC(=O)N4CC3)[nH]c3nccc(c23)-c2cc(F)ccc21 [Example 151]
TEST_RESULT: 7.43

COMPOUND: CN1Cc2c(C3=CC4CN(S(C)(=O)=O)CC4C3)[nH]c3nccc(c23)-c2cc(F)ccc21 (stereo not shown) [Example 78]
TEST_RESULT: 7.21

COMPOUND: CN1Cc2c(C3=CCN(CC(=O)N4CC[C@H](O)C4)CC3)[nH]c3ncc(F)c(c23)-c2cc(F)ccc21 [Example 73]
TEST_RESULT: 7.28
